Recorded Bedstraw plant response rating, one value per entry.
Test system: bedstraw
Experiment: Test B pre/postemergence bedstraw
Type: in vivo, Galium aparine
Conditions: Preemergence, Rate 500 g/ha; scale 0 to 10 (0 no effect, 10 complete control)
Description: […] At the same time, these crop and weed species were also treated with postemergence applications of test chemicals formulated in the same manner. […] Treated plants and controls were maintained in a greenhouse for twelve to sixteen days, after which all species were compared to controls and visually evaluated. […]
Number only, no unit.

Below, 4 compounds whose answers are already recorded.
CC(C)N(C(=O)n1oc(=O)n(-c2ccnn2C)c1=O)c1ccc(F)cc1	0
Cc1nc(C)c(Cn2c(=O)on(C(=O)N(c3ccc(F)cc3)C(C)C)c2=O)s1	0
CC(C)N(C(=O)n1oc(=O)n(C2CCCCC2)c1=O)c1ccc(F)cc1F	0
CC(C)N(C(=O)n1oc(=O)n([C@H](C)c2ccccc2)c1=O)c1ccc(F)cc1	0

# evaluate next
// query Bedstraw plant response rating value for entry CCCn1c(=O)on(C(=O)N(c2ccc(F)cc2F)C(C)C)c1=O
// result 10

From: patent US6737383B1
